// reported inhibition per item
- System tested: Serine/threonine-protein kinase SIK2 (Homo sapiens) (UniProt Q9H0K1);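 also: mean inhibition of SNF1LK2 (QIK) kinase activity, from the GSK PKIS screening panel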
- Sequence (Q9H0K1 whole entry, looked up): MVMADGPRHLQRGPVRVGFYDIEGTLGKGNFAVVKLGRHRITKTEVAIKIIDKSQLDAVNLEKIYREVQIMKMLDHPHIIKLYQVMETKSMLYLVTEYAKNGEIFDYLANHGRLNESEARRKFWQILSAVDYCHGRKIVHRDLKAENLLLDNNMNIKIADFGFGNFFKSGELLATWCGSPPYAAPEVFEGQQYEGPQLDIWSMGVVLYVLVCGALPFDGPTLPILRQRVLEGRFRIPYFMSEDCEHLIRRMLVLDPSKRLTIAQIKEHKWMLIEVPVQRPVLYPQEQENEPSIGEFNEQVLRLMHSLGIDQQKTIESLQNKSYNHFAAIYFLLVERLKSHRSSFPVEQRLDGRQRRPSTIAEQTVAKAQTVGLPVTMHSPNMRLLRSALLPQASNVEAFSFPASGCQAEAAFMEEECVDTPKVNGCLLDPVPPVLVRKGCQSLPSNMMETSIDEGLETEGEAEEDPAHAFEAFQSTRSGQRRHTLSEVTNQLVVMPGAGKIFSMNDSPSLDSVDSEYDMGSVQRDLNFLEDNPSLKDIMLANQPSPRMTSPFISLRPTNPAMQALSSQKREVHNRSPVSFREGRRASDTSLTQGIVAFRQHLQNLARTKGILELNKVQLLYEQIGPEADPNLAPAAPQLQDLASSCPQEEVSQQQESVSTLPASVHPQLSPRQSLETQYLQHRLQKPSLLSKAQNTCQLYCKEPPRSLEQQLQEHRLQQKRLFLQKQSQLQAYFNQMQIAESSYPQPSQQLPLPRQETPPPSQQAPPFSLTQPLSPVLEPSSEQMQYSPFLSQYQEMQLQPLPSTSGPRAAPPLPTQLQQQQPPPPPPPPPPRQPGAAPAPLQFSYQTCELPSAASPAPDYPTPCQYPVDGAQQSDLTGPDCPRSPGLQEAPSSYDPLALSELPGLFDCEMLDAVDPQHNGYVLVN
- Measurement setup: at 1 µM
Property label: inhibition (%)

INSERT INTO measurements (compound, endpoint_result) VALUES
  ('Cn1c(-c2nonc2N)nc2cnccc21', -0.26),
  ('NS(=O)(=O)c1cccc(N/C=C2\C(=O)Nc3ccccc32)c1', 11.3),
  ('COc1cc(N2CCN(C(C)C)CC2)ccc1Nc1nc(Nc2cccc(F)c2C(=O)O)c2cc[nH]c2n1', 4.22),
  ('CC1=C(C(=O)Nc2ccc3[nH]ncc3c2)C(c2ccc(F)cc2)N=C(c2ccc(C(F)(F)F)nc2)N1 (centres undefined)', 4.41);

* * *

- System tested: Tyrosine-protein kinase receptor UFO (Homo sapiens) (UniProt P30530);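 also: values are mean percent inhibition of AXL from the GSK PKIS screen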
- Sequence (P30530 whole entry): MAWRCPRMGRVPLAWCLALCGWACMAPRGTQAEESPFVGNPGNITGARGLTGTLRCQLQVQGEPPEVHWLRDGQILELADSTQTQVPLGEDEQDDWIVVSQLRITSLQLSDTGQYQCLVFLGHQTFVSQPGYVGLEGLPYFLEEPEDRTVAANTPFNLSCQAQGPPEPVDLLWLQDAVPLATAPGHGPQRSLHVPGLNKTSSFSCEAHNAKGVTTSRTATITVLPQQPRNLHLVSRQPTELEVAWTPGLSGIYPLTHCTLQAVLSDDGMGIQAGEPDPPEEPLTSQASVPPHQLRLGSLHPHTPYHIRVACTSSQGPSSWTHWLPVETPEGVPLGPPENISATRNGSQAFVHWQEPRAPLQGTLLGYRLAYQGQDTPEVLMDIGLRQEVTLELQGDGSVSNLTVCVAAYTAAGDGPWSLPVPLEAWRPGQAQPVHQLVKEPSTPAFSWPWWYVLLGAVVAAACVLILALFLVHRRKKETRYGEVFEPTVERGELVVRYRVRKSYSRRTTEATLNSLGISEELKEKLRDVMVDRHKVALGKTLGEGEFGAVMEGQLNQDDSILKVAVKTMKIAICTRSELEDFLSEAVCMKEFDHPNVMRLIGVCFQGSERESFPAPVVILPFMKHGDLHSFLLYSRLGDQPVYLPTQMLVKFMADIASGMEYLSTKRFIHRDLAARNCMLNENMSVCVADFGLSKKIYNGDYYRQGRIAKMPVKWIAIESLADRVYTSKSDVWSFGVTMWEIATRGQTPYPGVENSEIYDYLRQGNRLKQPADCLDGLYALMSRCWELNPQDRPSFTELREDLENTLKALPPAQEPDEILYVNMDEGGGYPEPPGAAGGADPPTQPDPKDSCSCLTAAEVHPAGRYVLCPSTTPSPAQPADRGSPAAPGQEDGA
- Measurement setup: at 0.1 µM
Property label: inhibition (%)

INSERT INTO results (chem_smiles, property_label, endpoint_result) VALUES
  ('COc1ccccc1-c1cc(/C=C2\C(=O)Nc3ncc(Br)cc32)cc(Br)c1O', 'inhibition', -9.46),
  ('Cc1ccc(-c2cc3c(NC(=O)C4CC4)ncnc3o2)cc1', 'inhibition', -6.86),
  ('N#Cc1cccc(Nc2ncc(-c3ccccc3)o2)c1', 'inhibition', -2.1),
  ('NS(=O)(=O)c1cccc(N/C=C2\C(=O)Nc3ccccc32)c1', 'inhibition', -7.48),
  ('CN1CCC(n2cnc(-c3ccc(F)cc3)c2-c2ccnc(NCCO)n2)CC1', 'inhibition', -4.58),
  ('Cc1cc(O)cc(C)c1/C=C/c1cncc(C(N)=O)c1', 'inhibition', -2.07),
  ('COc1cccc(-n2ncc3c(N/N=C/c4ccc(C(=O)NCCN(C)C)cc4)ncnc32)c1', 'inhibition', 3.3),
  ('OCCCNc1nccc(-c2c(-c3ccc(F)cc3)nn3cc(C(F)(F)F)ccc23)n1', 'inhibition', -4.91),
  ('COc1cc(N2CCN(C(C)C)CC2)ccc1Nc1nc(Nc2cccc(F)c2C(=O)O)c2cc[nH]c2n1', 'inhibition', 2.71);

* * *

- System tested: Tyrosine-protein kinase Lyn (Homo sapiens);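 also: mean percent inhibition of the LYN A splice variant of the kinase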
- Measurement setup: at 1 µM
- Description: GSK_PKIS: LYN A (splice variant) mean inhibition at 1 uM [Nanosyn]
Property label: inhibition (%)

INSERT INTO assay_data (compound, result_unit, endpoint_result) VALUES
  ('CNC(=O)c1ncccc1Nc1nc(Nc2cc3c(cc2OC)CCCN3C(=O)CN(C)C)nc2[nH]ccc12', '%', 4.53),
  ('OCCCNc1nccc(-c2c(-c3ccc(F)cc3)nn3cc(C(F)(F)F)ccc23)n1', '%', 7.02),
  ('NS(=O)(=O)c1cccc(N/C=C2\C(=O)Nc3ccccc32)c1', '%', 11.6),
  ('Fc1ccc(Nc2nccc(-c3c(-c4ccc(C(F)(F)F)cc4)nn4ncccc34)n2)cc1F', '%', 2.13),
  ('CN1CCC(n2cnc(-c3ccc(F)cc3)c2-c2ccnc(NCCO)n2)CC1', '%', 7.19),
  ('CCOc1ccc2c(-c3ccnc(Nc4cc(OC)cc(C(F)(F)F)c4)n3)cnn2n1', '%', 5.91),
  ('CC1=C(C(=O)Nc2ccc3[nH]ncc3c2)C(c2ccc(F)cc2)N=C(c2ccc(C(F)(F)F)nc2)N1 (centres undefined)', '%', 5.17),
  ('COc1cc2c(cc1Nc1nc(Nc3cccc(F)c3C(N)=O)c3cc[nH]c3n1)N(C(=O)CN1CCN(C(C)C)CC1)CC2', '%', -0.57),
  ('COc1ccc2ncn(-c3cc(O[C@H](C)c4ccccc4C(F)(F)F)c(C(N)=O)s3)c2c1', '%', 1.75),
  ('COc1cc(N2CCN(C(C)C)CC2)ccc1Nc1nc(Nc2cccc(F)c2C(=O)O)c2cc[nH]c2n1', '%', 8.65),
  ('COc1ccccc1-c1cc(/C=C2\C(=O)Nc3ncc(Br)cc32)cc(Br)c1O', '%', 14.4),
  ('CC1=C(C(=O)Nc2ccc3[nH]nc(C)c3c2)C(c2ccc(C(F)(F)F)cc2)CC(=O)N1 (centres undefined)', '%', 6.25),
  ('CC(C)c1ccc(-c2cc(-c3c[nH]nc3-c3ccccn3)ccn2)cc1', '%', 1.48),
  ('Cc1nnc(-c2cccc(-c3ccc(C(=O)NCC4CC4)cc3)c2)o1', '%', 5.98),
  ('Cc1ccc(-c2cc3c(NC(=O)C4CC4)ncnc3o2)cc1', '%', 6.63),
  ('N#Cc1ccc2c(-c3ccnc(NC4CC4)n3)c(-c3ccc(F)cc3)nn2c1', '%', 1.87),
  ('O=C(O[C@H]1CN[C@H](C#Cc2cc3ncnc(Nc4ccc5c(cnn5Cc5ccccc5)c4)c3s2)C1)N1CCOCC1', '%', 1.11),
  ('Fc1cccc(COc2ccc(Nc3ncncc3C#Cc3ccccc3)cc2Cl)c1', '%', 7.71),
  ('NS(=O)(=O)c1ccc(N/N=C2\C(=O)Nc3cccc(CCc4ccncc4)c32)cc1', '%', 6.56);
